Tested on: HCT-116
ASSAY PROTOCOL: Antiproliferative activity against human HCT-116 cells assessed as cell growth inhibition at 0.4 uM after 3 days by ATPlite assay relative to control
Type: functional
SETUP CONDITIONS: HCT-116, 72 h, time 3 day
MEASUREMENT NAME: inhibition at 0.4 µM (%)
Express the result in % but write the number alone.

Consider the worked cases shown below.
COMPOUND	inhibition at 0.4 µM / %
COc1ccc(C(=O)O[C@@H]2CC[C@@H]3CCC[C@H](CC(=O)O)N3[C@H]2C)c(OC)c1	-6.1
COc1cccc2c1C(=O)c1c(O)c3c(c(O)c1C2=O)C[C@@](O)(C(=O)CO)C[C@@H]3O[C@H]1C[C@H](N)[C@H](O)[C@H](C)O1 [DOXORUBICIN]	84.5

Consider the compound "C[C@H]1[C@H](OC(=O)c2ccccc2)CC[C@@H]2CCC[C@H](CC(=O)O)N21" tested on HCT-116; state its inhibition at 0.4 µM.
-12.8

For HCT-116, give inhibition at 0.4 µM of the listed compound: "C[C@H]1[C@H](OC(=O)/C=C/c2ccccc2)CC[C@@H]2CCC[C@H](CC(=O)O)N21"
-3.6

Send back HCT-116 inhibition at 0.4 µM of "COc1ccc(/C=C/C(=O)O[C@@H]2CC[C@@H]3CCC[C@H](CC(=O)O)N3[C@H]2C)cc1" only.
-6.1

Write down the reported inhibition at 0.4 µM (system: HCT-116) of "COc1ccc(C(=O)O[C@@H]2CC[C@@H]3CCC[C@H](CC(=O)O)N3[C@H]2C)cc1OC"
-3.6
